assay: Boiling temperature at pressure P; settings: 101.3 kPa; Liquid; Ebulliometric method (Recirculating still)
± gives the expanded uncertainty stated by the source.
assayReadout: Boiling temperature at pressure P
Please state the number and follow it with the unit.

[
  {
    "compound": "CC(=O)OCC(C)C [2-methylpropyl ethanoate]",
    "Boiling temperature at pressure P": "116.40 ± 0.2 °C"
  }
]

Reported Boiling temperature at pressure P for Cc1ccc(C)cc1 [1,4-dimethylbenzene] : what is it?
138.34 ± 0.2 °C

Reported Boiling temperature at pressure P for CC(=O)OCCC(C)C [3-methylbutyl ethanoate] : what is it?
142.00 ± 0.2 °C

Reported Boiling temperature at pressure P for COC(C)=O [methyl ethanoate] : what is it?
57.1 ± 0.2 °C
